# experiment: small-molecule binders of probe aInhba, primary screen, biochemical, small-molecule microarray, 635/667 nm fluorescence (AID 1148);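 further: score merges 667nm spot fluorescence with signal-to-noise for antibody binding to printed compounds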
# appliedConditions: higher = more signal
reportedProperty: composite z-score
Answer with a number only.

Incoming: Query (compound): `COCCOC(=O)N1C(=O)[C@@]2(c3cc(C#CCC(C(=O)OC)C(=O)OC)ccc31)[C@H](c1ccccc1OCCO)N1[C@H](c3ccccc3)[C@H](c3ccccc3)OC(=O)[C@H]1[C@@H]2C(=O)N1CCc2cc(OC)c(OC)cc2C1` ; field requested: composite z-score
Outgoing: -0.0774

Incoming: Ok, now `COC(=O)[C@]1(Cc2ccccc2N=[N+]=[N-])N=C(c2ccc(OCCCO)cc2)O[C@@H]1c1ccccc1N=[N+]=[N-]`
Outgoing: -0.0762

Incoming: How about this compound: `COc1ccc(CCN2C(=O)[C@@]3(Cc4ccccc42)c2ccccc2C(=O)N(Cc2ccccc2Cl)[C@H]3c2ccc(CO)cc2)cc1`
Outgoing: -0.0403
